# protocol: Safety index (ED50 of mydriatic activity / ID50 of Anti-SGM)
# Parameters: species or system male Wistar strain rats
# condition_set: rat, in vivo, po

compound	selectivity ratio
CCCC[N+]1(C)C2CC(OC(=O)C(CO)c3ccccc3)CC1C1OC12 (stereo not shown) [Scopolamine-N-butyl bromide, scopolamine-N-butyl bromide, reference compound]	2

These data points were gathered from patent US4447439A.
